Examples of molecules with documented C0 follow.
# TEST PROTOCOL: Mouse PK, intravenous
# Type: in vivo
# PROTOCOL CONDITIONS: mouse, serum, iv; female FVB mice, i.v. 0.5 mg/kg, mixture
# Method: Pharmacokinetics (PK) Assay. To measure mouse pharmacokinetics (PK), thienopyridine derivatives were dissolved in 5% dextrose and administered to female FVB mice at different dosing conditions; blood samples were collected at different time points and compound concentrations in the serum were measured by LC/MS/MS.
ASSAY READOUT: C0 (ng/mL)

* CN(C)C(=O)c1ccc(N2CCCN(c3ccnc4sc(C(N)=O)c(N)c34)CC2)cc1 [15u] | 328
* NC(=O)c1sc2nccc(N3CCCN(c4ccccc4)CC3)c2c1N [15k] | 168
* CNC(=O)c1ccc(N2CCCN(c3ccnc4sc(C(N)=O)c(N)c34)CC2)cc1 [15v] | 234

----------
# TARGET SYSTEM: RIOK2 (Homo sapiens)
# Sequence (Q9BVS4 whole entry): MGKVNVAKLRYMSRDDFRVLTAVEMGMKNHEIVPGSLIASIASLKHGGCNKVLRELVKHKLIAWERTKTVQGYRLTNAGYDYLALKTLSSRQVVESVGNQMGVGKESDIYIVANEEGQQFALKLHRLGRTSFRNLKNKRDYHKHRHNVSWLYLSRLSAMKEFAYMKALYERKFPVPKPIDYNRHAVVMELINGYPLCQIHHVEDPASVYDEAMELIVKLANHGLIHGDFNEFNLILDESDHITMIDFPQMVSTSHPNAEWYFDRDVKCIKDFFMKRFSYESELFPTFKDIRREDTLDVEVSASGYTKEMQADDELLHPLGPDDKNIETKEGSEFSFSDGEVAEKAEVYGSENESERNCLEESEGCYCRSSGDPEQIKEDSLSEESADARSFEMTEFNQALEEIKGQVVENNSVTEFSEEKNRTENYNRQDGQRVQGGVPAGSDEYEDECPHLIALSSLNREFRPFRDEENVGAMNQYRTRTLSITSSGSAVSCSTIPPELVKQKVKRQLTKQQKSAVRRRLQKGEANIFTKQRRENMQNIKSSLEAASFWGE
pKd: −log10 of the molar value.
ASSAY READOUT: pKd

- CN(C)C(=O)c1ccc(N2CCCN(c3ccnc4sc(C(N)=O)c(N)c34)CC2)cc1 [15u]: 6.62

----------
# TARGET SYSTEM: CDK19 (Homo sapiens, UniProt Q9BWU1)
# Sequence (Q9BWU1 whole entry): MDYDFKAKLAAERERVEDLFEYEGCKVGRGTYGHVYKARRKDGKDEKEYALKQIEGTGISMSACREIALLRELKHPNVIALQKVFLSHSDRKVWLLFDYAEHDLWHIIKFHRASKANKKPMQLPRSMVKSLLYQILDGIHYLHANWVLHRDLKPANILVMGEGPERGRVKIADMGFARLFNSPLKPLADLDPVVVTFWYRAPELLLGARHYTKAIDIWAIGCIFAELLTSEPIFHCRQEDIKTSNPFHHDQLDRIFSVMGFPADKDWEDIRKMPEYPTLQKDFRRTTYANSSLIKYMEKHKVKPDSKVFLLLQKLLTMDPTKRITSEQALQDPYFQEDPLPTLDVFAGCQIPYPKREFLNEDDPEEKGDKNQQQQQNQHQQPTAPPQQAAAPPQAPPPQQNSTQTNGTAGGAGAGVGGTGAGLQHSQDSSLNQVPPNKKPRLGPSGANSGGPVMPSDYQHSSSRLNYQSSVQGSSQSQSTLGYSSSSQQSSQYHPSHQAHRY
ASSAY READOUT: Kd (nM)

• CN(C)C(=O)c1ccc(N2CCCN(c3ccnc4sc(C(N)=O)c(N)c34)CC2)cc1 [15u] = 65

----------
# Test system: PSA expression in CRPC cell line C4-2
# TEST PROTOCOL: PSA expression in C4-2 cell culture supernatant
# Type: cell-based
# PROTOCOL CONDITIONS: 96 h; C4-2 culture supernatant, 4-day treatment, FBS-supplemented regular media; read-out: IC50, suppression of PSA expression
ASSAY READOUT: IC50

* CN(C)C(=O)Cc1ccc(N2CCCN(c3ccnc4sc(C(N)=O)c(N)c34)CC2)cc1 [15w] | 15.7 nM

----------
# TEST PROTOCOL: in vivo
# PROTOCOL CONDITIONS: female, CD-1, mouse, serum, po, 25 mg/kg
ASSAY READOUT: AUC(0-t)

- CN(CCCO)C(=O)c1ccc(N2CCCN(c3ccnc4sc(C(N)=O)c(N)c34)CC2)cc1 [compound 6264]: 470 ng·h/mL
